These measurements were taken from patent US11285135B2.

System: Phosphorylation of ERK½ in A549 cells
protocol description: Phospho-ERK½ MSD Assay in A549 cells
Format: cell-based
run parameters: Homo sapiens, A549, A549 cells; 4 hours compound treatment; 10 ng/mL EGF for 10 min; read-out: p-ERK IC50 (A549)
pIC50: −log10 of the molar value.
assay endpoint: pIC50

Recorded results for 10 molecules are shown here.
{"molecule": "C=CC(=O)N1CCN(c2snc3c(F)c(-c4cc(N)c(Cl)cc4Cl)c(Cl)cc23)CC1 [Example 3-20]", "pIC50": "< 4.00"}
{"molecule": "C=CC(=O)N1CCN(c2snc3c(F)c(-c4c(O)cccc4F)c(Cl)cc23)C(C(F)F)C1 (racemic) [Example 2-9]", "pIC50": "< 4.00"}
{"molecule": "C=CC(=O)N1CCN(c2nnc(-c3cccnc3C)c3cc(-c4c(O)cccc4F)c(Cl)cc23)CC1 [Example 10-8]", "pIC50": "< 4.00"}
{"molecule": "C=CC(=O)N1CCN(c2nnc(-c3ccccc3CC)c3cc(-c4c(O)cccc4F)c(Cl)cc23)CC1 [Example 10-5]", "pIC50": "< 4.00"}
{"molecule": "C=CC(=O)N1CCN(c2nc(=O)n(-c3c(CC)cccc3CC)c3nc(-c4c(O)cccc4F)c(Cl)cc23)[C@@H](C)C1 [Example 8-4]", "pIC50": "< 4.48"}
{"molecule": "C=CC(=O)N1CCN(c2snc3c(F)c(-c4cc(N)ccc4Cl)c(Cl)cc23)CC1 [Example 3-19]", "pIC50": "< 4.48"}
{"molecule": "C=CC(=O)N1CCN(c2nnc(-c3ccccc3OC)c3cc(-c4c(O)cccc4F)c(Cl)cc23)CC1 [Example 10-2]", "pIC50": "< 4.00"}
{"molecule": "C=CC(=O)N1CCN(c2nnc(-c3ccccc3C(C)C)c3cc(-c4c(O)cccc4F)c(C)nc23)CC1 [Example 27]", "pIC50": "< 4.48"}
{"molecule": "C=CC(=O)N1CCN(c2nc(=O)n(-c3c(CC)cccc3CC)c3nc(-n4nnc5ccccc54)c(Cl)cc23)[C@@H](C)C1 [Example 9-12]", "pIC50": "< 4.00"}
{"molecule": "C=CC(=O)N1C[C@@H](C)N(c2snc3c(F)c(-c4cc(O)cc5ccccc45)c(Cl)cc23)[C@H](C)C1 (racemic) [Example 2-7]", "pIC50": "< 4.48"}

Query: Which pIC50 is reported for this molecule? C=CC(=O)N1CCN(c2snc3c(F)c(-c4cc(O)cc5ccccc45)c(Cl)cc23)C[C@H]1C [Example 5-7]
Result: < 4.00

Query: # input molecule: C=CC(=O)N1CCN(c2snc3nc(-c4c(O)cccc4F)c(Cl)cc23)[C@@H](C)C1 (racemic) [Example 2-3] ; wanted: its pIC50
Result: < 4.00

Query: Quick one: pIC50 for C=CC(=O)N1CCN(c2snc3cc(-c4cc(OC)cc5ccccc45)c(Cl)cc23)CC1 [Example 1-4] ?
Result: < 4.00

Query: Which pIC50 value belongs to C=CC(=O)N1CCN(c2snc3c(F)c(-c4cc(N)nc5ccccc45)c(Cl)cc23)CC1 [Example 26] ?
Result: < 4.00

Query: Reported pIC50 for C=CC(=O)N1CCN(c2nc(=O)n(-c3ccccc3C(C)C)c3cc(-c4cccc(Cl)c4Cl)c(Cl)cc23)[C@@H](C)C1 [Example 9-10] : what is it?
Result: 4.18

Query: Consider the molecule C=CC(=O)N1CC(Nc2snc3c(F)c(-c4cc(O)cc5ccccc45)c(Cl)cc23)C1 [Example 1-20] and give its measured pIC50.
Result: < 4.00

Query: // lookup pIC50 for C=CC(=O)N1CCN(c2snc3c(F)c(-c4cc(O)cc5ccccc45)c(Cl)cc23)C(CO)C1 (stereo in doubt) [Example 1-7]
Result: < 4.00

Query: Quick one: pIC50 for C=C(CBr)C(=O)N1CCN(c2snc3c(F)c(-c4cc(O)cc5ccccc45)c(Cl)cc23)CC1 [Example 18-2] ?
Result: < 4.00

Query: Record request: pIC50 value, item C=CC(=O)NC1CN(c2snc3c(F)c(-c4cc(O)cc5ccccc45)c(Cl)cc23)C1 [Example 4-6]
Result: < 4.00

Query: What pIC50 value was documented for this molecule, C=CC(=O)N1CCN(c2snc3c(F)c(-c4c(C)ccc5[nH]ncc45)c(Cl)cc23)CC1 [Example 3-5] ?
Result: 5.43

Query: Entry C=CC(=O)N1CCN(c2snc3c(F)c(-c4cc(O)cc5ccccc45)c(Cl)cc23)C(C(=O)O)C1 (centres unmarked) [Example 22] has what pIC50?
Result: < 4.00
